Reported values of inhibition at 1000 µM for individual entries
- target: Human serum albumin (HSA) glycation by fructose (AGE-HSA) (Homo sapiens)
- Construct: purchased Sigma Aldrich, St. Louis, Mo., USA
- Sequence (P02768 25-609): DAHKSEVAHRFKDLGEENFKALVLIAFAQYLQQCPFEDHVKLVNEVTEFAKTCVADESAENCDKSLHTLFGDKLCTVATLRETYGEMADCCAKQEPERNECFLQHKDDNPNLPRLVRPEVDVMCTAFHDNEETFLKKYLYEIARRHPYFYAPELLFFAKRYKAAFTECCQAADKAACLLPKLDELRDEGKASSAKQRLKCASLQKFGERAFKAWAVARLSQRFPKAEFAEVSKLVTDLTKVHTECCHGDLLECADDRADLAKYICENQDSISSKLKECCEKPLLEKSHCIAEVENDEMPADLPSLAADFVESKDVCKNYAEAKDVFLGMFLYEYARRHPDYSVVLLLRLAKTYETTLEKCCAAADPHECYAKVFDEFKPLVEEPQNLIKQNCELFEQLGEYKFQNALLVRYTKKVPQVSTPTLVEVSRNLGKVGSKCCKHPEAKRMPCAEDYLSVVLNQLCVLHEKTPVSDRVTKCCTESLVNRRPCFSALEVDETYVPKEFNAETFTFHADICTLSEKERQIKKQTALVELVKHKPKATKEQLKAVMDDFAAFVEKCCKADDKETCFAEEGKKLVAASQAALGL
- method-description: In-vitro antiglycation activity against HSA glycation (fluorescence-based antiglycation assay)
- Type: biochemical
- measurement-conditions: read-out: Antiglycation Activity % Inhibition
State just the number; it will be interpreted in %.

O=C(O)c1ccccc1Nc1cc(Cl)cc([N+](=O)[O-])c1 | 84.4

q: Indicate its recorded inhibition at 1000 µM; the compound in question is O=C(O)c1ccccc1Nc1ccc([N+](=O)[O-])cc1[N+](=O)[O-]
a: 90

q: Indicate its recorded inhibition at 1000 µM; the compound in question is COc1cc(OC)c(Nc2ccccc2C(=O)O)cc1Cl
a: 75.1

q: Indicate its recorded inhibition at 1000 µM; the compound in question is Cc1cc(C)cc(Nc2ccccc2C(=O)O)c1
a: 65

q: Indicate its recorded inhibition at 1000 µM; the compound in question is CCCCc1ccc(Nc2ccccc2C(=O)O)cc1
a: 70

q: Indicate its recorded inhibition at 1000 µM; the compound in question is O=C(O)c1ccccc1Nc1ccc(Cl)c([N+](=O)[O-])c1
a: 68.9

q: Indicate its recorded inhibition at 1000 µM; the compound in question is O=C(O)c1ccccc1Nc1ccc(Cl)cc1[N+](=O)[O-]
a: 82

q: Indicate its recorded inhibition at 1000 µM; the compound in question is O=C(O)c1ccccc1Nc1cccc([N+](=O)[O-])c1
a: 80

q: Indicate its recorded inhibition at 1000 µM; the compound in question is O=C(O)c1ccccc1Nc1cc(Cl)ccc1[N+](=O)[O-]
a: 78

q: Indicate its recorded inhibition at 1000 µM; the compound in question is COc1cccc(Nc2ccccc2C(=O)O)c1
a: 71

q: Indicate its recorded inhibition at 1000 µM; the compound in question is O=C(O)c1ccccc1Nc1ccccc1Cl
a: 68

Measured values drawn from patent US9381182B2 for this set.
